# pKd values compiled below
System Tested: T1, His-tagged cynomolgus monkey CD38 (ACRO Biosystems cat #CD8-05223) (cynomolgus monkey, UniProt Q5VAN0 43-301)
T1 construct: bought recombinant protein with His tag
Protocol Description: SPR, captured scFv-Fc, His-CD38 analyte;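 further: SPR on a Carterra LSA, scFv-Fc captured by anti-human Fc on HC30M chip, His-tagged CD38 (human, mouse, cynomolgus) flowed as analyte in eight 1:2 steps from 400 nM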
Reminder that pKd means the negative base-10 logarithm of the concentration expressed in mol/L.

See these solved cases before continuing.
>  <Binder>
40566p1.D2 (scFv, V domains shown, tested as scFv-Fc supernatant) VH: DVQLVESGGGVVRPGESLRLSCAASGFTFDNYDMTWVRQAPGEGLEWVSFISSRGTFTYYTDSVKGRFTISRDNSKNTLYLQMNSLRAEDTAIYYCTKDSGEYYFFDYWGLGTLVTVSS VL: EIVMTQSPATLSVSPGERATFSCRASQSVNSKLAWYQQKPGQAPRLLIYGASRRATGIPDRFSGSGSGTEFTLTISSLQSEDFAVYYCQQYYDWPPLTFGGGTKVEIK

>  <Observation Type>
pKd

>  <Numeric Value>
7.53

$$$$
>  <Binder>
40566p1.A7 (scFv, V domains shown, tested as scFv-Fc supernatant) VH: RELVESGGGVVRPGESLRLSCAASGFTFDNYDMTWVRQAPGEGLEWVSFISSRGTFTYYTDSVRGRFTISRDNSKNTLYLEMNSLRAEDTAIYYCAKDSGEYYFFDYWGLGTLVTVSS VL: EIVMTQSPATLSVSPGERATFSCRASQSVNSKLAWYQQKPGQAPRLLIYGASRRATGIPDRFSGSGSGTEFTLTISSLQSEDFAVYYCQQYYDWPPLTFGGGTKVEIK

>  <Observation Type>
pKd

>  <Numeric Value>
8.58

$$$$

Switching to the query record.
pKd for 40617p1.2.A1 (scFv, V domains shown, tested as scFv-Fc supernatant) VH: EVQLLESGGGLVQPGGSLRLSCAASGFTFSSYWMTWVRQAPGKGLEWVSAISSYGGQYTYYADSVKGRFTISRDNSKDTLYLHMDSLRAEDTAVYYCAKDWDDGMDVWGQGTTVTVSS VL: EIVMTQSPAVLSVSPGERATLSCRASQSVNIKLAWYQQKPGQAPRLLIYGASTRAAGIPDRFSGSGSGTDFTLTISSLQSDDFAVYYCQQYYDLPPYSFGGGTKVEIK ?
7.11
